Molecular target: T1, human ferroportin (SLC40A1) fused in frame with GFP, stably expressed in HEK293 cells (human, UniProt Q9NP59 1-571)
T1 sequence (looked up): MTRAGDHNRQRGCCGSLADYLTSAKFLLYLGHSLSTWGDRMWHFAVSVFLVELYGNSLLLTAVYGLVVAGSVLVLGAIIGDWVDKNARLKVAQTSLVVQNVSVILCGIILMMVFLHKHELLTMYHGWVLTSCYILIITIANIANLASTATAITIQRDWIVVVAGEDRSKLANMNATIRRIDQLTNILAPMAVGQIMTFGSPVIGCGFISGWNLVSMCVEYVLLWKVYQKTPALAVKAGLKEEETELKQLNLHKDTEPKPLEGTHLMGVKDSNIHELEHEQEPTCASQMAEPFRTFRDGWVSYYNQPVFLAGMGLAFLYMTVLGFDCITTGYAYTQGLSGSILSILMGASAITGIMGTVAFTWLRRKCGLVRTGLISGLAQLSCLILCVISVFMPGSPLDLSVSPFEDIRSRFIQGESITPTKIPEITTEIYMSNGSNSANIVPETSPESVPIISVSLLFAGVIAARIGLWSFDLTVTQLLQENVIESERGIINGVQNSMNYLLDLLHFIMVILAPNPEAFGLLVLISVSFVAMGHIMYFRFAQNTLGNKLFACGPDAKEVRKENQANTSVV
Assay: cell-based or functional assay
Numbered stars: 1 amine (or outer) side, 2 acyl side, 3 side chain; on linkers, the order of the positions; unused ones are H or OH. Side chains are listed from the residue outwards. * marks the point of attachment. γGlu = O=C(O)[C@H](CCC(=O)[*:2])N[*:1]; Palmitoyl = CCCCCCCCCCCCCCCC(=O)*; Isovaleryl = CC(C)CC(=O)*
binders and their reported Potency EC50 (nM), ferroportin-GFP internalization/degradation
Just the number in nM, nothing appended.

Isovaleryl-DTHFPCIKFEPK([γGlu-Palmitoyl])SKGWECK-NH2 (not fully specified (bridges); cysteine pairing not given here) [Isovaleric acid-DTHFPCIKFEPK(isoGlu-Palm)-SKGWECK-NH2] ... 8
H-DTHFPCIIFGGPRSRGWVCK-NH2 (not fully specified (bridges); printed as Hy-DTHFPCIIFGGPRSRGWVCK-NH2; cysteine pairing not given here) [Hy-DTHFPCIIFGGPRSRGWVCK-NH2] ... 520
Isovaleryl-DTHFPCIKF-NH2 (SMILES CC[C@H](C)[C@H](NC(=O)[C@H](CS)NC(=O)[C@@H]1CCCN1C(=O)[C@H](Cc1ccccc1)NC(=O)[C@H](Cc1c[nH]cn1)NC(=O)[C@@H](NC(=O)[C@H](CC(=O)O)NC(=O)CC(C)C)[C@@H](C)O)C(=O)N[C@@H](CCCCN)C(=O)N[C@@H](Cc1ccccc1)C(N)=O) [Isovaleric acid-DTHFPCIKF-NH2] ... 7

Next up:
Q: // Potency EC50 (nM), ferroportin-GFP internalization/degradation lookup, key: H-DTHFPCIIFGGPRSKGWNCK-NH2 (not fully specified (bridges); printed as Hy-DTHFPCIIFGGPRSKGWNCK-NH2; cysteine pairing not given here) [Hy-DTHFPCIIFGGPRSKGWNCK-NH2]
Result: 404
